// provenance: patent US20250320496A1

Tested on: human ABCB11 mRNA
experiment: ASO treatment of primary human hepatocytes (PHH), ABCB11 mRNA by RT-qPCR normalized to B2M
Type: cell-based
test settings: primary human hepatocytes, 5 μM ASO, normalized to untreated PHHs (UNT)
Strand notation (5' to 3'): a small letter for the sugar, then the base; units joined by * are phosphorothioate-linked, units joined directly phosphodiester-linked; [ ] holds rarer units or linkages, { } end groups; capitals alone tell only the bases. e = 2'-O-(2-methoxyethyl) (MOE); l = locked nucleic acid (LNA); [5mC] = 5-methylcytosine; d = 2'-deoxy (DNA)
readout label: ABCB11 mRNA FC (5 μM ASO vs. UNT) (fold change)
Just the number please, in fold change, no unit attached.

Before answering, review these 5 worked examples.
{"substance": "CO-4491 (antisense eG*eA*eG*eG*eT*eT*eG*eA*e[5mC]*eA*eA*eA*eT*eA*eG*eG*eT*eG*eT*eG)", "ABCB11 mRNA FC (5 μM ASO vs. UNT) (fold change)": 1.101}
{"substance": "CO-4527 (antisense eG*eA*eG*e[5mC]*eA*eT*e[5mC]*eA*eG*eG*eT*eA*e[5mC]*e[5mC]*eA*eT*eG*eA*e[5mC]*eA)", "ABCB11 mRNA FC (5 μM ASO vs. UNT) (fold change)": 0.97}
{"substance": "CO-7066 (eT*e[5mC]*eT*eG*eG*lA*eA*eA*eA*eT*lA*eA*eT*eG*e[5mC]*l[5mC]*eT*eT*eT*e[5mC]; antisense)", "ABCB11 mRNA FC (5 μM ASO vs. UNT) (fold change)": 1.2}
{"substance": "CO-7051 (antisense eA*e[5mC]*e[5mC]*eT*eT*eG*eG*eT*eT*e[5mC]*e[5mC]*e[5mC]*e[5mC]*e[5mC]*eT*eG*e[5mC]*eT*eG*eT)", "ABCB11 mRNA FC (5 μM ASO vs. UNT) (fold change)": 1.201}
{"substance": "CO-6968 (antisense eT*eG*eG*eA*eT*dG*dT*dA*dG*dA*dT*dG*dA*dA*dT*eG*eG*e[5mC]*eA*eA)", "ABCB11 mRNA FC (5 μM ASO vs. UNT) (fold change)": 1.373}

[Q] What value of measured ABCB11 mRNA FC (5 μM ASO vs. UNT) is listed for CO-7004 (antisense eG*eT*eG*eA*lG*eG*e[5mC]*eA*eT*l[5mC]*eA*eG*eG*eT*lA*eA*eG*eT*eT*e[5mC]) ?
[A] 1.285

###

Tested on: human ABCB11 mRNA
experiment: ASO treatment of primary human hepatocytes (PHH), ABCB11 mRNA by RT-qPCR normalized to B2M
Format: cell-based
test settings: primary human hepatocytes, 5 μM ASO, normalized to untreated PHHs (UNT)
Strand notation (5' to 3'): a small letter for the sugar, then the base; units joined by * are phosphorothioate-linked, units joined directly phosphodiester-linked; [ ] holds rarer units or linkages, { } end groups; capitals alone tell only the bases. e = 2'-O-(2-methoxyethyl) (MOE); l = locked nucleic acid (LNA); [5mC] = 5-methylcytosine
readout label: ABCB11 mRNA FC (5 μM ASO vs. UNT) (fold change)
Just the number please, in fold change, no unit attached.

Before answering, review these 10 worked examples.
{"substance": "CO-4027 (antisense eG*eT*eG*eG*eA*eG*eT*eGeT*eT*eT*e[5mC]*eT*eG*eG*eT*eT*eT*eA*eT)", "ABCB11 mRNA FC (5 μM ASO vs. UNT) / fold change": 1.095}
{"substance": "CO-7032 (antisense eA*e[5mC]*eA*eA*eA*eG*eA*eA*eT*e[5mC]*eG*e[5mC]*eT*eG*eT*eG*eG*e[5mC]*eA*eG)", "ABCB11 mRNA FC (5 μM ASO vs. UNT) / fold change": 1.093}
{"substance": "CO-3991 (antisense eG*eG*eG*eA*eT*eG*eA*e[5mC]eT*e[5mC]*e[5mC]eT*eA*eA*eA*eA*eA*eT*eG*eG)", "ABCB11 mRNA FC (5 μM ASO vs. UNT) / fold change": 1.614}
{"substance": "CO-4493 (antisense eA*eT*eG*eG*eT*eG*eA*eG*eA*eG*eT*eG*eT*eG*eG*eT*eT*e[5mC]*eA*eA)", "ABCB11 mRNA FC (5 μM ASO vs. UNT) / fold change": 1.178}
{"substance": "CO-7027 (antisense e[5mC]*eG*eA*e[5mC]*eA*eG*eT*eG*eA*eG*e[5mC]*eT*eT*eA*eT*e[5mC]*eT*eG*eG*eA)", "ABCB11 mRNA FC (5 μM ASO vs. UNT) / fold change": 1.304}
{"substance": "CO-7165 (antisense eT*eT*eA*eA*eT*eT*e[5mC]*eT*eA*e[5mC]*eA*eG*eA*eG*eG*eG*eA*eG*e[5mC]*eA)", "ABCB11 mRNA FC (5 μM ASO vs. UNT) / fold change": 1.329}
{"substance": "CO-7056 (antisense eT*eG*e[5mC]*eT*e[5mC]*eA*e[5mC]*e[5mC]*e[5mC]*e[5mC]*e[5mC]*e[5mC]*eT*e[5mC]*eA*e[5mC]*e[5mC]*eT*eT*eG)", "ABCB11 mRNA FC (5 μM ASO vs. UNT) / fold change": 1.491}
{"substance": "CO-4033 (antisense eG*eA*eA*eA*e[5mC]*e[5mC]*eT*eT*eT*eT*eA*eA*e[5mC]*eT*e[5mC]*eT*e[5mC]*e[5mC]*eA*e[5mC])", "ABCB11 mRNA FC (5 μM ASO vs. UNT) / fold change": 1.472}
{"substance": "CO-7023 (antisense e[5mC]*eT*eT*eA*eT*e[5mC]*eT*eG*eG*eA*eA*eA*eA*eT*eA*eA*eT*eG*e[5mC]*e[5mC])", "ABCB11 mRNA FC (5 μM ASO vs. UNT) / fold change": 1.338}
{"substance": "CO-7181: derivative ASO with additional chemical modifications based on parent ASO CO-4529 (antisense eG*eT*eG*eG*lA*eG*e[5mC]*eA*lA*eA*e[5mC]*eT*lA*eG*eG*e[5mC]*lA*e[5mC]*eT*eG)", "ABCB11 mRNA FC (5 μM ASO vs. UNT) / fold change": 1.603}

[Q] Please tell me: ABCB11 mRNA FC (5 μM ASO vs. UNT) of CO-4489 (antisense e[5mC]*eA*e[5mC]*eA*eG*eA*eG*eT*eG*e[5mC]*e[5mC]*eA*eA*eG*eG*eA*eG*eT*eT*eA) , system human ABCB11 mRNA?
[A] 1.083

[Q] Please tell me: ABCB11 mRNA FC (5 μM ASO vs. UNT) of CO-4508 (antisense eG*eT*eA*eG*eG*eA*eA*eG*eT*eT*eG*eA*eA*eT*eG*eA*eG*eT*eT*eG) , system human ABCB11 mRNA?
[A] 1.185
